# Test system: Hepatotoxicity
# TEST: FDA HLAED, serum glutamic oxaloacetic transaminase (SGOT) increase
# RECORDED_CONDITIONS: human
ASSAY_METRIC: SGOT Increase - Number of Reports

COMPOUND | SGOT Increase - Number of Reports
CO[C@@]1(NC(=O)C2SC(=C(C(N)=O)C(=O)O)S2)C(=O)N2C(C(=O)O)=C(CSc3nnnn3C)CS[C@@H]21 (some centres not stated) [CEFOTETAN] | < 4
N[C@@H](C(=O)N[C@@H]1C(=O)N2C(C(=O)O)=C(Cl)CS[C@H]12)c1ccccc1 [CEFACLOR ANHYDROUS] | >= 4
O=C1C(O)=C([C@H]2CC[C@H](c3ccc(Cl)cc3)CC2)C(=O)c2ccccc21 [ATOVAQUONE] | < 4
CC[C@H]1OC(=O)[C@H](C)[C@@H](O[C@H]2C[C@@](C)(OC)[C@@H](O)[C@H](C)O2)[C@H](C)[C@@H](O[C@@H]2O[C@H](C)C[C@H](N(C)C)[C@H]2O)[C@](C)(O)C[C@@H](C)CN(C)[C@H](C)[C@@H](O)[C@]1(C)O [AZITHROMYCIN] | >= 4
CC1(C)O[C@@H]2[C@@H](CO[C@@]3(COS(N)(=O)=O)OC(C)(C)O[C@@H]23)O1 [TOPIRAMATE] | < 4

Would you mind giving SGOT Increase - Number of Reports for every compound in the list below?
1. C=CC[N+]1([C@H]2C[C@H]3[C@@H]4CC[C@H]5C[C@H](O)[C@@H](N6CCOCC6)C[C@]5(C)[C@H]4CC[C@]3(C)[C@H]2OC(C)=O)CCCC1.[Br-] [ROCURONIUM BROMIDE]
2. CN1C2CCCC1CC(NC(=O)c1nn(C)c3ccccc13)C2 (configuration not stated) [GRANISETRON]

// result
1. < 4
2. < 4

###

# Tested on: Hepatotoxicity
# TEST: FDA HLAED, alkaline phosphatase increase
# RECORDED_CONDITIONS: human
ASSAY_METRIC: Alkaline Phosphatase Increase - Number of Reports

Some solved entries appear below for comparison.
MOLECULE | MEASURED_ON | EXPERIMENTAL_VALUE
CC1(C)O[C@@H]2[C@@H](CO[C@@]3(COS(N)(=O)=O)OC(C)(C)O[C@@H]23)O1 [TOPIRAMATE] | Hepatotoxicity | < 4
NCCCC(O)(P(=O)(O)O)P(=O)(O)O | Hepatotoxicity | >= 4
CC(C)C[C@H]1C(=O)N2CCC[C@H]2[C@]2(O)O[C@](NC(=O)[C@@H]3C=C4c5cccc6[nH]c(Br)c(c56)C[C@H]4N(C)C3)(C(C)C)C(=O)N12 | Hepatotoxicity | < 4
CN1C2CCCC1CC(NC(=O)c1nn(C)c3ccccc13)C2 (configuration not stated) | Hepatotoxicity | >= 4
CSc1ccc2c(c1)N(CCC1CCCCN1C)c1ccccc1S2 (configuration not stated) | Hepatotoxicity | >= 4

Go through the list and state Alkaline Phosphatase Increase - Number of Reports for each entry.
1. CN(Cc1ccc(C(C)(C)C)cc1)Cc1cccc2ccccc12
2. Cc1ccccc1N1CCN(CCc2nnc3n2CCCC3)CC1
3. COc1ccc(CCN(C)CCCC(C#N)(c2ccc(OC)c(OC)c2)C(C)C)cc1OC (configuration not stated)
4. CC(C)(C)NCC(O)COc1cccc2c1CCC(=O)N2 (configuration not stated)
5. C[C@@H](CN1CC(=O)NC(=O)C1)N1CC(=O)NC(=O)C1
6. CCOC(=O)[C@H](CCc1ccccc1)N[C@@H](C)C(=O)N1[C@H](C(=O)O)C[C@@H]2CCC[C@@H]21
7. CN1C(C(=O)Nc2ccccn2)=C(O)c2ccccc2S1(=O)=O

// result
1: < 4; 2: < 4; 3: >= 4; 4: < 4; 5: < 4; 6: >= 4; 7: >= 4

Provide Alkaline Phosphatase Increase - Number of Reports for all items below, preserving their order.
1. CNCCC(Oc1ccc(C(F)(F)F)cc1)c1ccccc1 (configuration not stated)
2. O=C(O)Cc1ccccc1Nc1c(Cl)cccc1Cl
3. CO[C@]12CC[C@@]3(C[C@@H]1[C@](C)(O)C(C)(C)C)[C@H]1Cc4ccc(O)c5c4[C@@]3(CCN1CC1CC1)[C@H]2O5
4. N[C@@H](C(=O)N[C@@H]1C(=O)N2C(C(=O)O)=C(Cl)CC[C@H]12)c1ccccc1 [LORACARBEF ANHYDROUS]
5. O=[N+]([O-])O[C@@H]1CO[C@H]2[C@@H]1OC[C@@H]2O [ISOSORBIDE MONONITRATE]

// result
1: >= 4; 2: >= 4; 3: < 4; 4: < 4; 5: < 4

Entry source: ChEMBL document CHEMBL1697781
